Biological target: Trypsin (Homo sapiens, UniProt P07477+P07478+P35030)
Assay: Stability of the compound in pH 8.2 ammonium bicarbonate buffer assessed as trypsin (unknown origin)-mediated drug degradation at 20 ug/ml measured after 120 mins by RP-HPLC analysis
Assay type: ADME, protein assay
Conditions: trypsin in ammonium bicarbonate buffer, pH 8.2, at 20 µg/mL, read-out: Drug degradation
Where a SMILES comes first, the peptide text is derived from it. Bridges are numbered along the chain shown (N, C = ends).
metric name: metabolised at 2 h, 20 ug/ml (%)
Please respond with the number in % and leave the unit unwritten.

Identify measured metabolised at 2 h, 20 ug/ml associated with CC[C@H](C)[C@@H]1NC(=O)[C@H](CCCNC(=N)N)NC(=O)[C@H](C(C)C)NC(=O)[C@H](C)NC(=O)[C@H](C(C)C)NC(=O)[C@H]([C@@H](C)CC)NC(=O)[C@H](CC(C)C)NC(=O)[C@H](CCCNC(=N)N)NC(=O)[C@H](C(C)C)NC(=O)CC[C@@H](C(N)=O)NC(=O)[C@H](CCCNC(=N)N)NC(=O)[C@H](CCCNC(=N)N)NC(=O)[C@H](Cc2c[nH]c3ccccc23)NC1=O (VRLIVAVRIWRRE-NH2; lactam N-13)
30

----------
System: Pseudomonas aeruginosa
Test: Antibiofilm activity against Pseudomonas aeruginosa PA14 incubated for 24 hrs under shaking condition by turbidometric method
Format: functional
Where a SMILES comes first, the peptide text is derived from it.
metric name: MBEC

Solved entries (count: 2):
# compound, MBEC
rows = [
    ("CN[C@H](CC(C)C)C(=O)N[C@H]1C(=O)N[C@@H](CC(N)=O)C(=O)N[C@H]2C(=O)N[C@H]3C(=O)N[C@H](C(=O)N[C@H](C(=O)O)c4cc(O)cc(O)c4-c4cc3ccc4O)[C@H](O)c3ccc(c(Cl)c3)Oc3cc2cc(c3O[C@@H]2O[C@H](CO)[C@@H](O)[C@H](O)[C@H]2O[C@H]2C[C@](C)(N)[C@H](O)[C@H](C)O2)Oc2ccc(cc2Cl)[C@H]1O", ">68 µM"),
    ("CC[C@H](C)[C@@H]1NC(=O)[C@H](CCCNC(=N)N)NC(=O)[C@H](C(C)C)NC(=O)[C@H](C)NC(=O)[C@H](C(C)C)NC(=O)[C@H]([C@@H](C)CC)NC(=O)[C@H](CC(C)C)NC(=O)[C@H](CCCNC(=N)N)NC(=O)[C@H](C(C)C)NC(=O)[C@H](CCCNC(=N)N)NC(=O)[C@H](CCCNC(=N)N)NC(=O)[C@H](Cc2c[nH]c3ccccc23)NC1=O (cyclo(AVRIWRRVRLIV))", ">65.8 µM"),
]

Moving on to the next compound.
Identify measured MBEC corresponding to CCCCCCCCCCCCCCCC[N+](C)(C)Cc1ccccc1.[Cl-] [CETALKONIUM CHLORIDE]
>126 µM

meta.source: ChEMBL document CHEMBL4725351
